Could you please report measured T.I. LD50/ED50 for the items listed next?
- Test system: Walker carcinosarcoma 256
- Method: Walker carcinosarcoma 256 tumour growth inhibition (single p.o. dose)
- Format: in vivo, Female Sprague Dawley rats
- Condition Summary: therapeutic index LD50/ED50; p.o.
Lab note: write the figure by itself, no unit.

Prompt line: Bench note: what T.I. LD50/ED50 did CNS(=O)(=O)CCNC(=O)N(CCCl)N=O show?
Response line: 160

Prompt line: Entry to check: NS(=O)(=O)CCNC(=O)N(CCCl)N=O
Response line: 200

Prompt line: Entry to check: CN(C)S(=O)(=O)CCCCCNC(=O)N(CCCl)N=O
Response line: 250

Prompt line: Entry to check: O=P1(N(CCCl)CCCl)NCCCO1 (centres unmarked) [Cyclophosphamide, reference compound]
Response line: 30

Prompt line: Entry to check: O=NN(CCCl)C(=O)NCCS(=O)(=O)NCc1ccccc1
Response line: 125

Prompt line: Entry to check: CCCN(CCC)S(=O)(=O)CCNC(=O)N(CCCl)N=O
Response line: 125

Prompt line: Entry to check: O=NN(CCCl)C(=O)NCCS(=O)(=O)NCCO
Response line: 150

====

- Tested on: Walker carcinosarcoma 256
- Method: Walker carcinosarcoma 256 tumour growth inhibition (single p.o. dose)
- Format: in vivo, Female Sprague Dawley rats
- Condition Summary: therapeutic index LD50/ED50; p.o.
Experimental Endpoint: T.I. LD50/ED50
Lab note: write the figure by itself, no unit.

Prompt line: Item: CN(C)S(=O)(=O)CCNC(=O)N(CCCl)N=O [1:1] Test system: Walker carcinosarcoma 256 Read-out: T.I. LD50/ED50 Value: ?
Response line: 200

Prompt line: Entry to check: CCN(CC)S(=O)(=O)CCNC(=O)N(CCCl)N=O [1:2]
Response line: 150

Prompt line: Entry to check: O=NN(CCCl)C(=O)NC1CCCCC1 [CCNU, reference compound]
Response line: 90

Prompt line: Entry to check: O=NN(CCCl)C(=O)NCCS(=O)(=O)N1CCCCC1 [1:4]
Response line: 125

Prompt line: Entry to check: O=NN(CCCl)C(=O)NCCCl [BCNU, 1,2-bis-(2-chloroethyl)-nitrosourea, reference compound]
Response line: 50

====

- System: Lymphatic leukemia L1210
- Method: Lymphatic leukemia L1210 survival test (survival time increase, long term survival, cure potential)
- Format: in vivo, Female BDF1 mice
- Condition Summary: ≥90% long term survivors on day 60; p.o. once
Experimental Endpoint: Dose or dose range for cure

Please review the entries below; each comes with its answer.
Prompt line: Bench note: what Dose or dose range for cure did CN(C)S(=O)(=O)CCNC(=O)N(CCCl)N=O show?
Response line: 31 to 63 mg/kg

Prompt line: Entry to check: CN(CCO)S(=O)(=O)CCNC(=O)N(CCCl)N=O
Response line: 63 mg/kg

Prompt line: Entry to check: O=NN(CCCl)C(=O)NCCS(=O)(=O)NCCO
Response line: 63 mg/kg

Prompt line: Entry to check: O=NN(CCCl)C(=O)NCCS(=O)(=O)N(CCO)CCO
Response line: 125 mg/kg

Prompt line: Entry to check: CN(C)S(=O)(=O)CCNS(=O)(=O)CCNC(=O)N(CCCl)N=O
Response line: 125 mg/kg

Further cases:
Prompt line: Bench note: what Dose or dose range for cure did CN(C)S(=O)(=O)CCCCNC(=O)N(CCCl)N=O show?
Response line: 125 mg/kg

Prompt line: Entry to check: CN(C)S(=O)(=O)CCCCCNC(=O)N(CCCl)N=O
Response line: 125 mg/kg

Prompt line: Entry to check: CCCN(CC)S(=O)(=O)CCNC(=O)N(CCCl)N=O
Response line: 125 to 150 mg/kg

Prompt line: Entry to check: CC(C)(CO)NS(=O)(=O)CCNC(=O)N(CCCl)N=O
Response line: 250 mg/kg

Prompt line: Entry to check: CCCN(CCC)S(=O)(=O)CCNC(=O)N(CCCl)N=O
Response line: 125 mg/kg

Prompt line: Entry to check: O=NN(CCCl)C(=O)NCCS(=O)(=O)N1CCCCC1
Response line: 125 mg/kg

Prompt line: Entry to check: CCCCNS(=O)(=O)CCNC(=O)N(CCCl)N=O
Response line: 63 mg/kg

Prompt line: Entry to check: O=NN(CCCl)C(=O)NCCS(=O)(=O)NC1CCCCC1
Response line: 125 mg/kg

Sourced from patent US4613695A
